Molecular target: T1, factor XIIIa (human, UniProt P00488 39-732)
T1 sequence (looked up): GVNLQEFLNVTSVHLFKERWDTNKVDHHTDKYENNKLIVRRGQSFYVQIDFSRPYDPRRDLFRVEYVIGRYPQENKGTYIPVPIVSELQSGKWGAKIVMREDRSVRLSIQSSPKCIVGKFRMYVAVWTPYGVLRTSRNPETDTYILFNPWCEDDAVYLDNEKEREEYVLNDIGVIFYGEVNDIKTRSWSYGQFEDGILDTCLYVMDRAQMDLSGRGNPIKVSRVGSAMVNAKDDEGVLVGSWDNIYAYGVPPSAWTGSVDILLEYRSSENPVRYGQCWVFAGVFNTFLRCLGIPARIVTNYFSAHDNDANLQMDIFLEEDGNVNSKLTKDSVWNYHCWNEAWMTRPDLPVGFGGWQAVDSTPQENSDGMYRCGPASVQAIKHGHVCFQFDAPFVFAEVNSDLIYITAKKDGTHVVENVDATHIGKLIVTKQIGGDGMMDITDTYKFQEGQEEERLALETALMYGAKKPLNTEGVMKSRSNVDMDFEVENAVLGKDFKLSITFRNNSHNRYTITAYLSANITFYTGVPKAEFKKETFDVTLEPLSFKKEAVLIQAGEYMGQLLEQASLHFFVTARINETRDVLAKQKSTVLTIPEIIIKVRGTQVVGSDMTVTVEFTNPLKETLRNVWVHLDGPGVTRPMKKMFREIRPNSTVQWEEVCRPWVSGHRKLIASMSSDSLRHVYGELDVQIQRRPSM
Assay: cell-based or functional assay
METRIC_NAME: Relative inhibitory effect (%) at 7.27 µM, recombinant tridegin = 100%
A number alone suffices; assume %.

[ask] Name the recorded Relative inhibitory effect (%) at 7.27 µM, recombinant tridegin = 100% of the binder listed here: Ac-AQDQYCAFIPQCRPRSELIK-NH2 (cysteine pairing not given here) [20 amino acid-long tridegin peptide SEQ ID NO.15]
[reply] 3.32

[ask] Return reported Relative inhibitory effect (%) at 7.27 µM, recombinant tridegin = 100%. Input binder: Ac-LLPCKEWHQGIPNPRCWCGA-NH2 (cysteine pairing not given here) [20 amino acid-long tridegin peptide SEQ ID NO.3]
[reply] 5.88

[ask] Give the value of Relative inhibitory effect (%) at 7.27 µM, recombinant tridegin = 100% reported for the following: Ac-QGIPNPRCWCGADLECAQDQ-NH2 (cysteine pairing not given here) [20 amino acid-long tridegin peptide SEQ ID NO.7]
[reply] 13.7

[ask] Name the recorded Relative inhibitory effect (%) at 7.27 µM, recombinant tridegin = 100% of the item Ac-ECAQDQYCAFIPQCRPRSEL-NH2 (cysteine pairing not given here) [20 amino acid-long tridegin peptide SEQ ID NO.14] in your answer.
[reply] 6.3
